- Study system: EGFR-L858R/C797S (H1975-clone #8 cells) (Homo sapiens, UniProt P00533, C797S/L858R)
- Construct: expressed in transfected cells; host or cells: H1975 (endogenous EGFR knocked out, clone #8)
- Procedure summary: Cell degradation of EGFR, HTRF assay, H1975-clone#8 (L858R/C797S) cells
- Format: cell-based
- Experimental conditions: 16 h treatment, EGFR degradation
DC50 values for the molecules below.
Assay metric: DC50 (nM)

Molecule	Assay metric	Unit tag	Numeric value
Cc1cc2cc(n1)-c1cnn(C)c1OC[C@H]1CC[C@H](C1)CN1/C(=N/C2=O)Nc2ccc(N3CCN(C4CCN(c5cccc6c5C(C)(C)C(=O)N6C5CCC(=O)NC5=O)CC4)CC3)cc21 (some centres unmarked)	DC50	nM	0.856
Cc1cc2cc(n1)-c1cnn(C)c1OC[C@H]1CC[C@H](C1)CN1/C(=N/C2=O)Nc2ccc(N3CCN(CC4CCN(c5ccc(C6CCC(=O)NC6=O)nc5C)CC4)CC3)cc21 (some centres unmarked)	DC50	nM	0.608
Cc1cc2cc(n1)-c1cnn(C)c1OC[C@H]1CC[C@H](C1)CN1/C(=N/C2=O)Nc2ccc(N3CCN(CC4CN(c5c(C)cc(C6CCC(=O)NC6=O)nc5C)C4)CC3)cc21 (some centres unmarked)	DC50	nM	3.18
COC[C@@H]1CN(c2ccc3c(c2)N2CC4CC[C@H](COc5c(cnn5C)-c5cc(cc(C)n5)C(=O)/N=C/2N3)C4)CCN1C1CN(C2CCN(c3cc(F)c([C@H]4CCC(=O)NC4=O)c(F)c3)CC2)C1	DC50	nM	0.75
COC[C@@H]1CN(c2ccc3c(c2)N2C[C@@H]4CC[C@H](COc5c(cnn5C)-c5cc(cc(C)n5)C(=O)/N=C/2N3)C4)CCN1C1CCN(c2cc(F)c([C@H]3CCC(=O)NC3=O)c(F)c2)CC1	DC50	nM	4.28

###

- Study system: EGFR-L858R/C797S (H1975-clone #8 cells) (Homo sapiens, UniProt P00533, C797S/L858R)
- Construct: expressed in transfected cells; host or cells: H1975 (endogenous EGFR knocked out, clone #8)
- Procedure summary: Cell degradation of EGFR, HTRF assay, H1975-clone#8 (L858R/C797S) cells
- Type: cell-based
- Experimental conditions: 16 h treatment, EGFR degradation
Lab note: anything with DC50 below 4 nM is marked true; values at 4 nM or higher are marked false.

Compound	Category
Cc1cc2cc(n1)-c1cnn(C)c1OC[C@H]1CCC(C1)CN1/C(=N/C2=O)Nc2ccc(N3CCN([C@H]4CCN(c5ccc(C6CCC(=O)NC6=O)nc5C)C[C@@H]4F)CC3)cc21 (some centres unmarked)	true
COC[C@@H]1CN(c2ccc3c(c2)N2CC4CC[C@H](COc5c(c(C)nn5C)-c5cc(cc(C)n5)C(=O)/N=C/2N3)C4)CCN1C1CCN(c2cc(F)c([C@H]3CCC(=O)NC3=O)c(F)c2)CC1	false
Cc1cc2cc(n1)-c1c(C)nn(C)c1OC[C@H]1CCC(C1)CN1/C(=N/C2=O)Nc2ccc(N3CCN(C4CCN(c5cc(F)c([C@H]6CCC(=O)NC6=O)c(F)c5)CC4)[C@@H](C)C3)cc21	true
Cc1cc2cc(n1)-c1cnn(C)c1OC[C@H]1CCC(C1)CN1/C(=N/C2=O)Nc2ccc(N3CCN([C@H]4CCN(c5ccc(C6CCC(=O)NC6=O)nc5C)CC4(F)F)CC3)cc21 (some centres unmarked)	false
COC[C@H]1CN(c2ccc3c(c2)N2C[C@@H]4CC[C@H](COc5c(c(C)nn5CCO)-c5cc(cc(C)n5)C(=O)/N=C/2N3)C4)CCN1C1CCN(c2cc(F)c([C@H]3CCC(=O)NC3=O)c(F)c2)CC1	true

###

- Study system: EGFR L858R (BaF3-L858R cells) (Homo sapiens, UniProt P00533, L858R)
- Construct: host or cells: BaF3
- Procedure summary: Cell degradation of EGFR, HTRF assay, BaF3-L858R cells
- Format: cell-based
- Experimental conditions: 16 h treatment, maximum percentage of degradation
Lab note: anything with Dmax below 80% is marked Yes; values at 80% or higher are marked No.

Molecule	Category
Cc1cc2cc(n1)-c1c(C)nn(C)c1OC[C@H]1CC[C@H](C1)CN1/C(=N/C2=O)Nc2ccc(N3CCN(CC4CN(c5cc(F)c([C@H]6CCC(=O)NC6=O)c(F)c5)C4)[C@@H](CF)C3)cc21	No
COC[C@H]1CN(c2ccc3c(c2)N2C[C@@H]4CC[C@H](COc5c(c(C)nn5C)-c5cc(cc(C)n5)C(=O)/N=C/2N3)C4)CCN1C1CCN(c2ccc(OC3CCC(=O)NC3=O)cc2C)CC1 (stereo partly drawn)	No
Cc1cc2cc(n1)-c1c(C)nn(C)c1OC[C@H]1CC[C@H](C1)CN1/C(=N/C2=O)Nc2ccc(N3CCC(N4CCC(Nc5cc(F)c([C@H]6CCC(=O)NC6=O)c(F)c5)CC4)CC3)cc21 (single isomer, unassigned)	No
Cc1cc2cc(n1)-c1cnn(C)c1OC[C@H]1CCC(C1)CN1/C(=N/C2=O)Nc2ccc(N3CCN(C4CCN(c5ccc(NC6CCC(=O)NC6=O)cc5C)CC4)CC3)cc21 (stereo partly drawn)	Yes
COCCn1nc(C)c2c1OC[C@H]1CC[C@H](C1)CN1/C(=N/C(=O)c3cc(C)nc-2c3)Nc2ccc(N3CCN(C4CCN(c5cc(F)c([C@H]6CCC(=O)NC6=O)c(F)c5)CC4)[C@@H](COC)C3)cc21	Yes
COCCn1nc(C)c2c1OC[C@H]1CC[C@H](C1)CN1/C(=N/C(=O)c3cc(C)nc-2c3)Nc2ccc(N3CCN(C4CCN(c5cc(F)c([C@H]6CCC(=O)NC6=O)c(F)c5)CC4)CC3)cc21	No
Cc1cc2cc(n1)-c1cnn(C)c1OC[C@H]1CCC(C1)CN1/C(=N/C2=O)Nc2ccc(N3CCN(C4CCN(c5cc(F)c([C@H]6CCC(=O)NC6=O)c(F)c5)CC4)C[C@@H]3CO)cc21	Yes
Cc1cc2cc(n1)-c1c(C)nn(C)c1OC[C@H]1CC[C@H](C1)CN1/C(=N/C2=O)Nc2ccc(N3CCN(CC4CN(c5cc(F)c([C@H]6CCC(=O)NC6=O)c(F)c5)C4)CC3)cc21	No
COC[C@H]1CN(c2ccc3c(c2)N2C[C@@H]4CC[C@H](COc5c(c(C)nn5C)-c5cc(cc(C)n5)C(=O)/N=C/2N3)C4)CCN1C1CCN(c2c(C)cc(NC3CCC(=O)NC3=O)nc2C)CC1 (stereo partly drawn)	Yes

###

DC50 values for the compounds below.
- Study system: EGFR-L858R/C797S (H1975-clone #8 cells) (Homo sapiens, UniProt P00533, C797S/L858R)
- Construct: expressed in transfected cells; host or cells: H1975 (endogenous EGFR knocked out, clone #8)
- Procedure summary: Cell degradation of EGFR, HTRF assay, H1975-clone#8 (L858R/C797S) cells
- Format: cell-based
- Experimental conditions: 16 h treatment, EGFR degradation

Compound	Study system	DC50, nM
Cc1cc2cc(n1)-c1c(C)nn(C)c1OC[C@H]1CC[C@H](C1)CN1/C(=N/C2=O)Nc2ccc(N3CCN(C4CCN(c5cc(F)c([C@H]6CCC(=O)NC6=O)c(F)c5)CC4)[C@@H](CC#N)C3)cc21	EGFR-L858R/C797S (H1975-clone #8 cells) (Homo sapiens, UniProt P00533, C797S/L858R)	2.97
Cc1cc2cc(n1)-c1c(C)nn(C)c1OC[C@H]1CCC(C1)CN1/C(=N/C2=O)Nc2ccc(N3CCN([C@@H]4CCN(c5ccc(C6CCC(=O)NC6=O)nc5C)C[C@@H]4F)CC3)cc21 (stereo partly drawn)	EGFR-L858R/C797S (H1975-clone #8 cells) (Homo sapiens, UniProt P00533, C797S/L858R)	0.48
COC[C@H]1CN(c2ccc3c(c2)N2C[C@@H]4CC[C@H](COc5c(c(C)nn5C)-c5cc(cc(C)n5)C(=O)/N=C/2N3)C4)CCN1C1CCN(c2ccc(NC3CCC(=O)NC3=O)cc2C)CC1 (stereo partly drawn)	EGFR-L858R/C797S (H1975-clone #8 cells) (Homo sapiens, UniProt P00533, C797S/L858R)	1.7

###

Imax (%) values for the compounds below.
- Study system: p-EGFR L858R (BaF3-L858R cells) (Homo sapiens, UniProt P00533, L858R)
- Construct: host or cells: BaF3
- Procedure summary: Cell p-EGFR inhibition assay, HTRF, BaF3-L858R cells
- Type: cell-based
- Experimental conditions: 16 h treatment, maximum percentage of pEGFR inhibition

Compound	Study system	Imax (%)
Cc1cc2cc(n1)-c1cnn(C)c1OC[C@H]1CCC(C1)CN1/C(=N/C2=O)Nc2cc(F)c(N3CCN(C4CCN(c5cnc(C6CCC(=O)NC6=O)cc5C)CC4)CC3)cc21 (stereo partly shown) [Example 100]	p-EGFR L858R (BaF3-L858R cells) (Homo sapiens, UniProt P00533, L858R)	107.3
COC[C@@H]1CN(c2ccc3c(c2)N2CC4CC[C@H](COc5c(cnn5C)-c5cc(cc(C)n5)C(=O)/N=C/2N3)C4)CCN1C1CN(C2CCN(c3cc(F)c([C@H]4CCC(=O)NC4=O)c(F)c3)CC2)C1 [Example 108]	p-EGFR L858R (BaF3-L858R cells) (Homo sapiens, UniProt P00533, L858R)	95.9
Cc1cc2cc(n1)-c1cnn(C)c1OC[C@H]1CCC(C1)CN1/C(=N/C2=O)Nc2ccc(N3CCC(CN4CCC(Nc5cc(F)c([C@H]6CCC(=O)NC6=O)c(F)c5)CC4)CC3)cc21 [Example 131]	p-EGFR L858R (BaF3-L858R cells) (Homo sapiens, UniProt P00533, L858R)	102.8
Cc1cc2cc(n1)-c1cnn(C)c1OC[C@H]1CC[C@H](C1)CN1/C(=N/C2=O)Nc2ccc(N3CCN(C4CCN(c5ccc(OC6CCC(=O)NC6=O)cc5)CC4)CC3)cc21 (stereo partly shown) [Example 57]	p-EGFR L858R (BaF3-L858R cells) (Homo sapiens, UniProt P00533, L858R)	101
Cc1cc2cc(n1)-c1c(C)nn(C)c1OC[C@H]1CC[C@H](C1)CN1/C(=N/C2=O)Nc2ccc(N3CCC(CN(C)C4CCN(c5cc(F)c([C@H]6CCC(=O)NC6=O)c(F)c5)CC4)CC3)cc21 [Example 138]	p-EGFR L858R (BaF3-L858R cells) (Homo sapiens, UniProt P00533, L858R)	104.27
Cc1cc2cc(n1)-c1cnn(C)c1OC[C@H]1CCC(C1)CN1/C(=N/C2=O)Nc2ccc(N3CCN(C4CCN(c5ccc(NC6CCC(=O)NC6=O)cc5Cl)CC4)CC3)cc21 (stereo partly shown) [Example 103]	p-EGFR L858R (BaF3-L858R cells) (Homo sapiens, UniProt P00533, L858R)	95.6
Cc1cc2cc(n1)-c1cnn(C)c1OC[C@H]1CCC(C1)CN1/C(=N/C2=O)Nc2ccc(N3CC(N(C)C4CCN(c5cc(F)c([C@H]6CCC(=O)NC6=O)c(F)c5)CC4)C3)cc21 [Example 124]	p-EGFR L858R (BaF3-L858R cells) (Homo sapiens, UniProt P00533, L858R)	94.6
Cc1cc2cc(n1)-c1cnn(C)c1OC[C@H]1CCC(C1)CN1/C(=N/C2=O)Nc2ccc(N3CCC(CN4CC(Nc5cc(F)c([C@H]6CCC(=O)NC6=O)c(F)c5)C4)CC3)cc21 [Example 132]	p-EGFR L858R (BaF3-L858R cells) (Homo sapiens, UniProt P00533, L858R)	97.32
Cc1cc2cc(n1)-c1c(C)nn(C)c1OC[C@H]1CC[C@H](C1)CN1/C(=N/C2=O)Nc2ccc(N3CCN(C4CCN(c5cc(F)c([C@H]6CCC(=O)NC6=O)c(F)c5)CC4)[C@@H](CC#N)C3)cc21 [Example 163]	p-EGFR L858R (BaF3-L858R cells) (Homo sapiens, UniProt P00533, L858R)	94.53
Cc1cc2cc(n1)-c1cnn(C)c1OC[C@H]1CC[C@H](C1)CN1/C(=N/C2=O)Nc2ccc(N3CCN(CC4CN(c5ccc6c(c5)CN(C5CCC(=O)NC5=O)C6=O)C4)CC3)cc21 (stereo partly shown) [Example 35]	p-EGFR L858R (BaF3-L858R cells) (Homo sapiens, UniProt P00533, L858R)	91.6
